Target: T1, MglC (mutual gliding-motility protein C) (M. xanthus, UniProt Q1D0B6 1-120)
T1 construct: MglC of Myxococcus xanthus (DSM no. 16526, type strain), Uniprot ID Q1D0B6; Homodimer by ASEC and SEC-SAXS; source: E. coli Rosetta (DE3), purified (Ni-NTA, SEC)
T1 sequence (looked up): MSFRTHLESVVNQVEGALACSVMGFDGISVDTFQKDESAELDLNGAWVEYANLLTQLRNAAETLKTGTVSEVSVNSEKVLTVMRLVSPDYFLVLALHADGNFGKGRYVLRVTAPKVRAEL
Assay: BLI; Octet RED 96; RomR^327-420/RomR^371-420 immobilised on AR2G sensors by EDC/NHS; MglC in solution; 20 mM HEPES pH 8.0, 150 mM NaCl, 10% glycerol; 1:1 binding model
Details: both partners purified
MEASURED PROPERTY: pKd
In textbook form, pKd equals minus log to base ten of the concentration in mol/L.

**Q:** // lookup pKd for DGGEALLREALSKASREVIEKIAWEVVPQLAETIIREELERLIKDRETQH (domain or fragment, M. xanthus, UniProt Q1D3Z1 371-420, looked up, synthetic gene from Invitrogen, cloned in pET-Duet-A with a TEV site; no tag cleavage is described; Trimer by SEC-SAXS; also called RomR C-terminal helix; helical domain of RomR; source: E. coli Rosetta (DE3), purified (Ni-NTA, SEC); not shown: His tag, N-terminal, kept) [RomR^371-420 (C-terminal helix of RomR, residues 371-420)]
**A:** 8.55
